Reference source for all entries: patent US20230321253A1

Biological target: KRAS-G12D protein (Homo sapiens, UniProt P01116, G12D)
Construct: host or cells: Aspc-1 cells
Sequence (P01116 1-188 isoform P01116-2 G12D): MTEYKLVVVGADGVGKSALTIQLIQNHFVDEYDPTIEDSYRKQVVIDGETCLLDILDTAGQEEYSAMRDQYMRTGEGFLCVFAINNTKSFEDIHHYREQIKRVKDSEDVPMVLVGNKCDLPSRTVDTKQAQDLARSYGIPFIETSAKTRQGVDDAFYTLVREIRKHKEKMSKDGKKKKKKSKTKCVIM
Assay: KRAS-G12D protein degradation study in Aspc-1 cells (western blot)
Type: cell-based
Conditions: ASPC1, 24 h, Aspc-1 cells treated with 0.1 μM compound, 24 hours; read-out: Rate of protein degradation (KRAS^G12D)
MEASUREMENT_NAME: inhibition at 0.1 µM

Give inhibition at 0.1 µM for all compounds that follow.
1. C#Cc1c(F)ccc2cc(O)cc(-c3ncc4c(N5CC6CCC(C5)N6)nc(OC[C@@H]5C[C@@H](NC(=O)N6CCC(c7ccc8c(C9CCC(=O)NC9=O)nn(C)c8c7)CC6)CN5C)nc4c3F)c12 (some centres unmarked)
2. C#Cc1c(F)ccc2cc(O)cc(-c3ncc4c(N5CC6CCC(C5)N6)nc(OCC56CCCN5[C@@H](COC(=O)NCCCCCCCCCCC(=O)N[C@H](C(=O)N5C[C@H](O)C[C@H]5C(=O)N[C@@H](C)c5ccc(-c7scnc7C)cc5)C(C)(C)C)CC6)nc4c3F)c12 (some centres unmarked)
3. C#Cc1c(F)ccc2cc(O)cc(-c3ncc4c(N5CC6CCC(C5)N6)nc(O[C@@H]5CCN(CCCCCCCCCCCC(=O)N[C@H](C(=O)N6C[C@H](O)C[C@H]6C(=O)N[C@@H](C)c6ccc(-c7scnc7C)cc6)C(C)(C)C)C5)nc4c3F)c12
4. C#Cc1c(F)ccc2cc(O)cc(-c3ncc4c(N5CC6CCC(C5)N6)nc(OC5CCN(CCCCCCCCCC(=O)N6CCN(C(=O)C[C@H](NC(=O)[C@@H]7CC(O)CN7C(=O)[C@@H](NC(=O)C7(F)CC7)C(C)(C)C)c7ccc(-c8scnc8C)cc7)CC6)C5)nc4c3F)c12 (stereo in doubt)

A)
11 to 30%
> 60%
31 to 60%
31 to 60%

* * *

Target: KRAS-G12D protein (Homo sapiens, UniProt P01116, G12D)
Construct: host or cells: Aspc-1 cells
Test: KRAS-G12D protein degradation study in Aspc-1 cells (western blot)
Type: cell-based
Conditions: Aspc-1 cells; read-out: DC50 of test compound-induced KRAS^G12D protein degradation
MEASUREMENT_NAME: DC50

Example entries and their recorded answers appear below.
{"columns": ["MOLECULE", "EXPERIMENTAL_TARGET", "DC50"],
 "data": [
  ["C#Cc1c(F)ccc2cc(O)cc(-c3ncc4c(N5CC6CCC(C5)N6)nc(O[C@H]5CCN(CCCCCCCCCC(=O)N[C@H](C(=O)N6C[C@H](O)C[C@H]6C(=O)N[C@@H](C)c6ccc(-c7scnc7C)cc6)C(C)(C)C)C5)nc4c3F)c12 [Compound 83]", "KRAS-G12D protein (Homo sapiens, UniProt P01116, G12D)", "101 to 200 nM"],
  ["C#Cc1c(F)ccc2cc(O)cc(-c3ncc4c(N5CC6CCC(C5)N6)nc(OCC5(CN6CCC7(CC6)CC(N6CCN(c8ccc9c(c8)C(=O)N(C8CCC(=O)NC8=O)C9=O)CC6)C7)CC5)nc4c3F)c12 (stereo not shown) [Compound 154]", "KRAS-G12D protein (Homo sapiens, UniProt P01116, G12D)", "< 10 nM"],
  ["C#Cc1c(F)ccc2cc(O)cc(-c3ncc4c(N5CC6CCC(C5)N6)nc(OCC5(CN6CCC7(CC6)CC(N6CCC(c8ccc9c%10c(cccc8%10)C(=O)N9C8CCC(=O)NC8=O)CC6)C7)CC5)nc4c3F)c12 (stereo not shown) [Compound 158]", "KRAS-G12D protein (Homo sapiens, UniProt P01116, G12D)", "< 10 nM"]
]}

Q) For CCc1c(F)ccc2cc(O)cc(-c3ncc4c(N5CC6CCC(C5)N6)nc(OCC5(CN6CCC7(CC6)CC(N6CCC(c8ccc9c(C%10CCC(=O)NC%10=O)nn(C)c9c8)CC6)C7)CC5)nc4c3F)c12 (stereo not shown) [Compound 160] , what is its reported DC50?
A) < 10 nM
